src = PubChem BioAssay (NCI)

Attribute: TGI
- Test system: TK-10 renal
- measurement.protocol: NCI tumour cell line growth inhibition, 48 h

{"compound": "CCOC(=O)Cn1c(=O)c2nc(SC)sc2n(-c2ccccc2)c1=S", "TGI": "60.1 µM"}

Which value of TGI has been reported for CC1(C)C2CC(O)C1CCC2=O (centres undefined) in the records?
> 100 µM

----------
- Test system: OVCAR-3 ovarian
- measurement.protocol: NCI tumour cell line growth inhibition, 48 h
Where a SMILES comes first, the peptide text is derived from it. Bridges are numbered along the chain shown (N, C = ends). [ ]: non-standard residue; d: D form. The star is where a group is joined. ξ: configuration not given here. ξDab(CH2SO3H) = NC(CCNCS(=O)(=O)O)C(=O)O; Heptanoyl(6-Me) = CC(C)CCCCC(=O)*; Dab = NCC[CH](N)C(=O)O
measure: TGI

These solved cases illustrate the format of a correct answer.
{"compound": "CCOC(=O)C1(C(=O)OCC)C[C@@H](C)[C@@H](O)C1", "TGI": "> 100 µM"}
{"compound": "CCC(C)C1NC(=O)C(CCNCS(=O)(=O)O)NC(=O)C(NC(=O)C(CCNCS(=O)(=O)O)NC(=O)C(NC(=O)C(CCNCS(=O)(=O)O)NC(=O)CCCCC(C)C)C(C)O)CCNC(=O)C(C(C)O)NC(=O)C(CCNCS(=O)(=O)O)NC(=O)C(CCNCS(=O)(=O)O)NC(=O)C(C(C)CC)NC1=O (stereo unspecified) ({Heptanoyl(6-Me)}-[ξDab(CH2SO3H)]T[ξDab(CH2SO3H)][Dab][ξDab(CH2SO3H)]II[ξDab(CH2SO3H)][ξDab(CH2SO3H)]T; lactam 4-C; configuration not given here)", "TGI": "8.06 µM"}
{"compound": "CCC(O)C1Cc2c(C)cc3c(c2O1)C(=O)c1ccccc1C3=O (stereo unspecified)", "TGI": "> 100 µM"}
{"compound": "N=C(N)SCc1c2ccccc2c(CSC(=N)N)c2ccccc12", "TGI": "30.2 µM"}
{"compound": "O=C1NC(=O)C(C(=O)C(=O)Nc2ccc(Cl)cc2Cl)C(=O)N1", "TGI": "> 100 µM"}

Now look at this entry.
Form field: reported TGI of O=[N+]([O-])c1ccc(Oc2c(Cl)cc(S(=O)(=O)/N=C(\NO)Nc3ccc(Cl)cc3)cc2Cl)c(Cl)c1
24.7 µM

----------
- Test system: HCT-116 colon
- measurement.protocol: NCI tumour cell line growth inhibition, 48 h; in the data active means GI50 below about 0.43 µM; inactive means the rest
Mark one answer only. Choices: active, inactive

Some entries whose results are on file:
{"compound": "COc1cc2c(cc1Cc1cccc(Cl)c1F)c(=O)c(C(=O)O)cn2[C@@H](CO)C(C)C", "label": "inactive"}
{"compound": "Cn1nc(C(F)(F)F)cc1-c1c[nH]c(OCc2ccc(Cl)cc2)c(-c2ccc(Cl)c(C(F)(F)F)c2)c1=O", "label": "inactive"}
{"compound": "COc1ccc2cc(C(=O)/C=C/c3ccc(N(C)C)cc3)ccc2c1", "label": "inactive"}
{"compound": "CCCc1cc(=O)n2c(C(=O)Nc3cccc(C(=O)OCC)c3)c(C(=O)Nc3ccc(F)cc3)sc2n1", "label": "inactive"}
{"compound": "C[C@]12CC[C@@H]3c4cc(OC(F)F)c(OS(N)(=O)=O)cc4CC[C@H]3[C@@H]1CC[C@@H]2OS(N)(=O)=O", "label": "inactive"}
{"compound": "O=C([O][Hg][CH2]C1OCCOC1[CH2][Hg][O]C(=O)c1ccccc1)c1ccccc1 (stereo not given)", "label": "inactive"}
{"compound": "CCNC(=O)Nc1ccc(Oc2ccnc3ccc4c(ccn4C)c23)cc1", "label": "inactive"}
{"compound": "CCCCCCCCC/C(=N\\NC(=O)c1ccncc1)c1ccc(O)c(O)c1O", "label": "active"}
{"compound": "Cc1cc(O)cc(C)c1/C=C/c1cncc(C(N)=O)c1", "label": "inactive"}

Consider now this further compound.
What did this assay record as the result for CCOC(=O)Nc1nc2ccc(Br)cc2s1 ?
inactive

----------
- Tested on: 786-0 renal
- measurement.protocol: NCI tumour cell line growth inhibition, 48 h; in the data active = GI50 below about 0.43 µM; inactive = the rest
Return exactly one item of Yes (active), No (inactive)

Check out these entries, answers already filled in.
{"item.smiles": "CCOC(=O)c1cc(C(=O)c2cc(OC)c(OC)c(OC)c2)n2c1ccc1ccccc12", "label": "No"}
{"item.smiles": "CCNC(=O)Nc1ccc(Oc2ccnc3ccc4c(ccn4C)c23)cc1", "label": "No"}
{"item.smiles": "N#Cc1c(N2CCOCC2)nc(=S)[nH]c1-c1ccccc1", "label": "No"}
{"item.smiles": "COc1ccc2c(c1)[nH]c(=O)c1c3ccccc3cn21", "label": "Yes"}
{"item.smiles": "COc1ccc2c(c1)CC[C@@H]1[C@@H]2CC[C@]2(C)c3c(cc(C(=O)O)c4sccc34)C[C@@H]12", "label": "No"}

GET /call?item= CCCCCCCCCCCCSC1=C(Cl)C(=O)C(OC)=C(OC)C1=O returns the recorded outcome of this test.
No

----------
- Tested on: 786-0 renal
- measurement.protocol: NCI tumour cell line growth inhibition, 48 h
// values below are reported TGI

{"molecule": "O=C1/C(=C/c2ccco2)N=C2Sc3c(nc[nH]c3=O)N12", "TGI": "> 100 µM"}
{"molecule": "O=C(OC1CCC2OOC1O2)c1ccc([N+](=O)[O-])cc1 (stereo unspecified)", "TGI": "> 100 µM"}
{"molecule": "O=C(SC1=NCCN1)c1cccc2ccccc12", "TGI": "> 100 µM"}
{"molecule": "O=C1C=CC(=O)c2c1ccc1c3ccccc3n(-c3ccccc3)c21", "TGI": "33 µM"}
{"molecule": "COC(=O)c1ccccc1CC(Cc1ccc2c(c1)CCC2)C(=O)OC (stereo unspecified)", "TGI": "> 100 µM"}

Fill blank: measured TGI of the molecule C[Si](C)(N[Si](C)(C)OCCc1ccccc1)OCCc1ccccc1 is ____.
> 100 µM

Then this molecule: NNC(=O)CCSc1ccccc1
> 100 µM

Another molecule to look at: COC(=O)C1=COC(C)C2CN3CCc4c([nH]c5cc(OC)c(OC)cc45)C3CC12 (stereo unspecified)
> 100 µM

Same question for O=C(O)c1cc(=O)c2c(OCC(O)COc3cccc4oc(C(=O)O)cc(=O)c34)cccc2o1 please.
> 100 µM

Would you mind doing O=C(NCc1cccnc1)C1COc2cc(-c3cc(=O)c4ccccc4o3)ccc2O1 (stereo unspecified) as well?
> 81.7 µM

Same again, this time with NC(=O)c1cccc(N=c2oc3ccc(Br)cc3cc2-c2nc3ccccc3[nH]2)c1
31.4 µM

----------
- Tested on: NCI-H23 lung
- measurement.protocol: NCI tumour cell line growth inhibition, 48 h
measure: TGI

{"compound": "COc1ccc2c(c1)oc(=O)c1cc(OC)ccc12", "TGI": "> 100 µM"}
{"compound": "Cc1cc(O)cc(C)c1/C=C/c1cncc(C(N)=O)c1", "TGI": "> 25 µM"}
{"compound": "Cc1cc(C)n(-c2ccnc3cc(Cl)ccc23)n1", "TGI": "> 100 µM"}
{"compound": "COC(=O)c1ccccc1NC(=NC1CCCCCC1)NS(=O)(=O)c1ccc(C)cc1", "TGI": "> 100 µM"}
{"compound": "NC(=O)c1ncn(C2OC(CO)C(O)C2O)c1NC=O (stereo not drawn)", "TGI": "> 100 µM"}
{"compound": "Clc1ccc(C(Cc2cccc(Cl)c2)c2c(Cl)nc(N3CCNCC3)nc2Cl)cc1 (stereo not drawn)", "TGI": "34.1 µM"}
{"compound": "O=[N+]([O-])c1ccc(C2=Nn3c(nnc3-c3ccc(Cl)cc3)SC2)o1", "TGI": "18.6 µM"}
{"compound": "O=C(SC1=NCCN1)c1cccc2ccccc12", "TGI": "> 100 µM"}
{"compound": "Cc1ccc([N+](=O)[O-])cc1S(=O)(=O)Nc1ccc(C2=NOC(c3cccs3)C2)cc1 (stereo not drawn)", "TGI": "73.4 µM"}
{"compound": "O=C1/C(=C/c2ccco2)N=C2Sc3c(nc[nH]c3=O)N12", "TGI": "> 100 µM"}

Item CC(=NNC(=S)Nc1cccc(C)c1)c1cccc(C(C)=NNC(=S)Nc2cccc(C)c2)n1 has what recorded TGI?
> 100 µM

Cool, now CCOC(=O)CCSc1nc2ccc(I)cc2c(=O)n1Cc1ccccc1
> 64.4 µM

Similarly, O=[N+]([O-])c1cc([N+](=O)[O-])c(/C=C/c2ccc(Cl)c(Cl)c2)cc1/C=C/c1ccc(Cl)c(Cl)c1 ?
50.8 µM

Next compound: N#Cc1c(N)n2c(nc1=Nc1ccc(Cl)cc1)sc1cc(Cl)ccc12
42.4 µM

Please do the same for COC(=O)C1=COC(C)C2CN3CCc4c([nH]c5cc(OC)c(OC)cc45)C3CC12 (stereo not drawn) as well.
> 100 µM
